test: yeast display, Sf9 membrane polyspecificity reagent, FACS + sequencing; frameworks hold sequencing errors
property label: polyreactivity (PSR sort gate)

Some solved cases for reference:
primary sequence	property label	test result
QVQLVESGGGLVQAGGSLRLSCAASGRIFARYAMGWYRQAPGKERELVAAISRGGSTKYADSVKGRFTISRDNAKNTVYLQMNSLKPEDTAVYYCAGQLWGSPYGAYYAGDYWGQGTQVTVSS	polyreactivity (PSR sort gate)	low polyreactivity
QVQLVESGGGLVQAGGSLRLSCAASGFTFNRYAMGWYRQAPGKERELVAAISWSGTSTYYADSVKGRFTISRDNAKNTVYLQMNSLKPEDTAVYYCATRQTHSYDYWGQGTQVTVSS	polyreactivity (PSR sort gate)	high polyreactivity
QVQLLETGGGLVQAGGSLRLSCAASGITFKYYSMGWYRQAPGKERELFATITKRGGSTYYADSVKGRFTISRDNAKNTVYLQMNSLKPVDTAVYYCAAEILIRFWGVQWGGEYWGQGTQVTVSS	polyreactivity (PSR sort gate)	high polyreactivity
QVQLVESGGGLVQAGGSLRVSCAASGRTFGRYAMGWYRQATGKERELVAAISYSGGSTYYADSVKGRFTISRDNAKNNVYLQMNSLKPEDTAVYYCAAYYSGKDGYWGQGTQVTVSS	polyreactivity (PSR sort gate)	high polyreactivity
QVQLVESGGGLVQAGGSLRLSCAASGLTFQENAMGWYRQAPGKERELVASITPIGGSTYYADSVKGRFTISRDNAKNTVYLQMKSLKPEDTAVYYCAARSPIYATYGHDYWGQATQVTVSS	polyreactivity (PSR sort gate)	low polyreactivity

Answer for every listed entry: what is its polyreactivity (PSR sort gate)? The entries follow.
1. QVQLVESGGGLVQAGGSLRLSSAASGSIFRNAMGWYRQAPGKERELVAGINGSGGSTYYADSVKGRFTISRDNAKNTVYLQMNSLKPEDTAVYYCAAGTSKPTPIYGYWGQGTQVTVSS
2. QVQLVESGGGLVQAGGSLRLSCAASGSTFGVNAMGWYRQAPGKEREFVAAITSSSGSTYYADSVKGRFTISRDNAKNTVYLQMNSLKPEDTAVYYCNKRYIQLYDYWGQGTQVTVSS
3. QVQLVESGGGLVQAGGSLRLSCAASGSTLYYNAMGWYRQAPGKERELVAAITSGGSTSYADSVKGRFTISRDNAKNTVYLQMNSLKPEDTAVSSCAAVFYRRFDYWGQGTQVTVSS
4. QVQLVESGGGLVQAGGSLRLSCAASGSTFSFYAMGWYRQAPGKERELVAAISRSGGSTFYADSVKGRFTISRDNAKNTVYLQMNSLKPEDTAVYYCAAYGGLQSRYYYWGQGTQVTVSS
5. QVQLVESGGGLVQAGGSLRLSCAASGSILYRYTMGWYRQAPGIERELVAAITKRGGRTYYADSVKGRFTISRDNAKNTVYLQTNSLKPEDTAVYYCAAKYYTGGSFEMYYWGQGTQVTVSS

Response:
1. low polyreactivity
2. low polyreactivity
3. low polyreactivity
4. high polyreactivity
5. high polyreactivity

====

test: yeast display, Sf9 membrane polyspecificity reagent, FACS + sequencing; frameworks hold sequencing errors
property label: polyreactivity (PSR sort gate)

Answered cases to consult:
primary sequence	polyreactivity (PSR sort gate)
QVQLVESGGCLVQAGGSLRLSCAASGSIFWSYSMGWYRQAPGKERELVAAISSGGSTNYADSVKGRFTISRDNAKNTVYLQMNSLKPEDTAVYYCSARFYTTSVRRKRYDYWGQGTQVTVSS	high polyreactivity
QVQLVESGGGLVQAGGSLRLSCAASGRTVEQNAMGLYRQAPGKERELVASITSVGSTDYADSVKGRFTISRDNAKNTVYLQMNSLKPEDTAVYYCAKTLGSQNYDFDYWGKGTQVTVSS	low polyreactivity
QVQLVESGGGLVQAGGSLRLSCAASGRISRTNAMGWYRQAPGKERELVATITRGGNTNYADSVKGRFTISRDNAKNTVYLQMNSLKPEDTAVYYCAALGRYLRTYRGYVWQFDSWGQGTQVTVSS	high polyreactivity
QVQLLDSGGGLVQAGGSLRLSCAASGSTISRNAMGWYRQAPGKERELVAAITSKGDSSYYADSVKGRFTISRDNAKNTVYLQMNSLKPEDTAVYYCAKDGVPAQDIGMDYWGQGTQVTVSS	low polyreactivity
QVQLVESGGGLVQAGGSLRLSCAASGSIFKIYAMGWYRQAPGKERELVAAISRRGSSTSYADSVKGRFTISRDNAKNTVYLQMNSLKPEDTAVYYCAARYISNPMDYWGQGTQVTVSS	high polyreactivity

Each sequence below has a reported value. Please supply its polyreactivity (PSR sort gate).
1. QVQLVESGGGLVQAGGSLRLSCAASGFIFRQYVMGWYRQAPGKERELVAAISWRTTSTYYADSVKGRFTISRDNAKNTVYLQMNSLKPEDTAVYYCAAPQVWWGYYTRGVDYWGQGTQVTVSS
2. QVQLVESGGGLVQAGGSLRLSCAASGFTFLWYGMGWYRQAPGKERELVAAISSSGGSTYYADSVKGRFTISRDNAKNTVFLQMNSLKPEDTAVYYCAVAVSNQYVRYGYWGQGTQVTVSS
3. QVQLVESGGGLVQARGSLRLSCAASGSTFYYYAMGWYRQAPGKEREFVAAISWTGGTTYYADSVKGRFTISRDIAKNTVYLQMNSLKPEDTAVYYCNADPWWDSDWGYDYWGQGTQVTVSS
4. QVQLVESGGGLVQAGGSLRLSCAASGSIFRVYAMGWYRQAPGKERELVASMSSDGSTYYADSVKGRFTISRDNAKNTVYLQMNSLKPEDTAVYYEYDWGQGTQVTVSS
5. QVQLVESGGGLVQAGGSLRLSCAASGFIFSYYAMGWYRQAPGKERELVAAITDSGGSTYYADSVKGRFTISRDNAKNTVYLQMNSLKPEDTAVYYCAATYWWAYVWAYSHVKSTNDYWGQGTQVTVSS
6. QVQLVESGGGLVQAGGSLRLSCAASGSTFGYYAMGCYRQAPGKERELVAAITSGGSTKYADSVKGRFTISRDNAKNTVYLQMNSLKPEDTAVYYCATSRYFGYGFWGQGTQVTVSS
7. QVQLVESGGGLVQAGGSLRLSCAASGSTFVSYAMGWYRQAPGKEREFVAAITWSGGSTYYADSVKGRFTISRDNAKNTVYLQMNRLKPEDTAVYYFARPYRGSPRYYYWGQGTQVTVSS

Response:
1: low polyreactivity; 2: low polyreactivity; 3: low polyreactivity; 4: low polyreactivity; 5: low polyreactivity; 6: low polyreactivity; 7: high polyreactivity

Each recorded value in this set is attributed to the nanobody polyreactivity screen of Harvey et al. (2022).
